Molecular target: hPXR (Homo sapiens (Human))
Assay: cell-based hPXR inverse agonistic assay
Quantity Measured: IC50

In: Please give the documented IC50 of CCCCOc1ccc(C(C)(C)C)cc1NC(=O)c1nnn(-c2cc(OC)ccc2C)c1C [H11]
Out: > 30 µM

In: Please give the documented IC50 of COc1ccc(OC)c(-n2nnc(C(=O)Nc3ccc(C)cc3)c2C)c1 [A2]
Out: > 30 µM

In: Please give the documented IC50 of CCCCOc1ccc(C(C)(C)C)cc1NC(=O)c1nnn(-c2cc(OC(F)(F)F)ccc2OC)c1C [H19]
Out: > 30 µM

In: Please give the documented IC50 of COc1ccc(OC)c(-n2nnc(C(=O)Nc3ccc(N)c(C(C)(C)C)c3)c2C)c1 [C2]
Out: > 30 µM

In: Please give the documented IC50 of CCCCNc1cc(NC(=O)c2nnn(-c3cc(C)ccc3OC)c2C)cc(C(C)(C)C)c1 [G6]
Out: 0.044 µM

In: Please give the documented IC50 of CCC(C)Oc1ccc(C(C)(C)C)cc1NC(=O)c1nnn(-c2ccccc2OC)c1C (stereo not drawn) [I3]
Out: > 30 µM

In: Please give the documented IC50 of COc1ccc(OC)c(-n2nnc(C(=O)Nc3cc(C(C)(C)C)ccc3OCCCCCCCCOc3ccc(C(C)(C)C)cc3NC(=O)c3nnn(-c4cc(OC)ccc4OC)c3C)c2C)c1 [B20]
Out: > 30 µM

In: Please give the documented IC50 of COc1ccc(OC)c(-n2nnc(C(=O)Nc3cc(OCCCCI)cc(C(C)(C)C)c3)c2C)c1 [D17]
Out: 0.0088 µM

In: Please give the documented IC50 of COc1ccc(-n2nnc(C(=O)Nc3ccc(NC(C)=O)c(C(C)(C)C)c3)c2C)cc1 [E2]
Out: > 30 µM

In: Please give the documented IC50 of COc1ccc(OC)c(-n2nnc(C(=O)Nc3cc(-n4cnc(C)c4)cc(C(F)(F)F)c3)c2C)c1 [A20]
Out: > 30 µM

In: Please give the documented IC50 of COc1ccc(OC)c(-n2nnc(C(=O)Nc3cc(OCCCCCCCC=O)cc(C(C)(C)C)c3)c2C)c1 [D26]
Out: 0.24 µM

In: Please give the documented IC50 of COc1ccc(OC)c(-n2nnc(NC(=O)Nc3ccc(C(C)(C)C)cc3)c2C)c1 [K3]
Out: > 30 µM

In: Please give the documented IC50 of CCCCCCCCOc1cc(NC(=O)c2nnn(-c3cc(OC)ccc3OC)c2C)cc(C(C)(C)C)c1 [D20]
Out: 0.82 µM

In: Please give the documented IC50 of COc1ccc(OC)c(-n2nnc(C(=O)Nc3cc(OCCCCCCCCCl)cc(C(C)(C)C)c3)c2C)c1 [D24]
Out: 1.07 µM

In: Please give the documented IC50 of COc1ccc(OC)c(-n2nnc(C(=O)Nc3nc4ccccc4n3C)c2C)c1 [A19]
Out: > 30 µM

In: Please give the documented IC50 of COc1ccc(OC)c(-n2nnc(C(=O)Nc3cc(C(C)(C)C)ccc3OCCCCI)c2C)c1 [B21]
Out: 0.038 µM

In: Please give the documented IC50 of CCC[C@H](CC)Oc1ccc(C(=O)N2CCN(C)CC2)cc1NC(=O)c1nnn(-c2cc(OC)ccc2OC)c1C [M6]
Out: 0.011 µM

In: Please give the documented IC50 of COc1ccc(C)cc1-n1nnc(C(=O)Nc2cc(N)cc(C(C)(C)C)c2)c1C [G5]
Out: 18.9 µM

In: Please give the documented IC50 of COc1ccc(-n2nnc(C(=O)Nc3cc(C)ccc3OC)c2C)cc1 [E10]
Out: > 30 µM

In: Please give the documented IC50 of COc1ccc(OC)c(-n2nnc(N(S(=O)(=O)c3ccc(C(C)(C)C)cc3)S(=O)(=O)c3ccc(C(C)(C)C)cc3)c2C)c1 [K8]
Out: > 30 µM

In: Please give the documented IC50 of COc1ccc(OC)c(-n2nnc(C(=O)Nc3cccc(-n4cccc4)c3)c2C)c1 [A11]
Out: > 30 µM

In: Please give the documented IC50 of COc1ccc(OC)c(-n2nnc(C(=O)Nc3ccc(CN4CCN(C)CC4)c(C(F)(F)F)c3)c2C)c1 [A21]
Out: > 30 µM

In: Please give the documented IC50 of COc1ccc(OC)c(-n2nnc(C(=O)Nc3cc(C(C)(C)C)ccc3OCC(=O)OC(C)(C)C)c2C)c1 [B24]
Out: > 30 µM

In: Please give the documented IC50 of CCCCOc1ccc(C(C)(C)C)cc1NC(=O)c1nnn(-c2cc(F)ccc2OC)c1C [H1]
Out: > 30 µM

----------
Biological target: hPXR (Homo sapiens (Human), UniProt O75469)
Sequence (O75469 whole entry): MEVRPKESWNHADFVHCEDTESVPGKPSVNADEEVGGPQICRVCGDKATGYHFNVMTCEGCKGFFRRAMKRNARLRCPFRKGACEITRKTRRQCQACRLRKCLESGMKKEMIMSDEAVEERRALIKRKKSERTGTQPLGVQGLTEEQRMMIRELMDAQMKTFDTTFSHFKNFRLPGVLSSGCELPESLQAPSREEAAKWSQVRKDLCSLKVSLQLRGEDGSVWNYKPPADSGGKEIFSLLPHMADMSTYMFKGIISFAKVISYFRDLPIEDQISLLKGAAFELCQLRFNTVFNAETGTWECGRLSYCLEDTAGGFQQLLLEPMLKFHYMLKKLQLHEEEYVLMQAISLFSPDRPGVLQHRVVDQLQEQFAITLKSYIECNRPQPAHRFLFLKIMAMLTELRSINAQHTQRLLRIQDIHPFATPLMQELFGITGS
Assay: cell-based hPXR antagonistic assay
Conditions: read-out: Antagonist (% inhibition at 10 μM)
Would you kindly list inhibition at 10 µM for each of these molecules?
Number in %, nothing else.

In: Please give the documented inhibition at 10 µM of `CCC[C@H](CC)Oc1ccc(C(=O)OC)cc1NC(=O)c1nnn(-c2cc(OC)ccc2OC)c1C`
Out: 112

In: Please give the documented inhibition at 10 µM of `CCCCOc1cc(NC(=O)c2nnn(-c3cc(Cl)ccc3OC)c2C)cc(C(C)(C)C)c1`
Out: 94

In: Please give the documented inhibition at 10 µM of `COc1ccc(C)cc1-n1nnc(C(=O)Nc2ccc(O)c(C(C)(C)C)c2)c1C`
Out: 108

In: Please give the documented inhibition at 10 µM of `COc1ccc(OC)c(-n2nnc(C(=O)Nc3cc(OCC(=O)OC(C)(C)C)cc(C(C)(C)C)c3)c2C)c1`
Out: 105

In: Please give the documented inhibition at 10 µM of `COC(=O)CCCOc1cc(NC(=O)c2nnn(-c3cc(OC)ccc3OC)c2C)cc(C(C)(C)C)c1`
Out: 107

In: Please give the documented inhibition at 10 µM of `CCC[C@H](CC)Oc1ccc(C(=O)N2CCN(C)CC2)cc1NC(=O)c1nnn(-c2cc(OC)ccc2OC)c1C`
Out: 108

----------
Molecular target: hPXR (Homo sapiens (Human))
Assay: hPXR binding assay
Conditions: read-out: Binding (IC50/μM); hPXR binding assay
Would you kindly list IC50 for each of these molecules?
Number in µM, nothing else.

In: Please give the documented IC50 of COc1ccc(OC)c(-n2nnc(C(=O)Nc3cc(C)ccc3OC)c2C)c1 [A25]
Out: 1.36

In: Please give the documented IC50 of COc1ccc(OC)c(-n2nnc(C(=O)Nc3cc(C(C)(C)C)ccc3OCC(C)(C)C)c2C)c1 [B29]
Out: 0.0177

In: Please give the documented IC50 of CCOc1ccc(C(C)(C)C)cc1NC(=O)c1nnn(-c2cc(OC)ccc2OC)c1C [B4]
Out: 0.167

In: Please give the documented IC50 of CCCCNc1cc(NC(=O)c2nnn(-c3cc(C)ccc3OC)c2C)cc(C(C)(C)C)c1 [G6]
Out: 0.25

In: Please give the documented IC50 of COc1ccc(OC)c(-n2nnc(C(=O)Nc3cccc(C)c3)c2C)c1 [A3]
Out: 10.9

In: Please give the documented IC50 of CCC(CC)Oc1ccc(C(C)(C)C)cc1NC(=O)c1nnn(-c2cc(OC)ccc2OC)c1C [B31]
Out: 0.0075

In: Please give the documented IC50 of CCC[C@H](CC)Oc1ccc(C(C)(C)C)cc1NC(=O)c1nnn(-c2cc(OC)c(OC)cc2OC)c1C [M9]
Out: 0.0078

In: Please give the documented IC50 of COC(=O)CCCOc1cc(NC(=O)c2nnn(-c3cc(OC)ccc3OC)c2C)cc(C(C)(C)C)c1 [D29]
Out: 0.31

In: Please give the documented IC50 of CCCCOc1ccc(C(C)(C)C)cc1NC(=O)c1nnn(-c2cc(F)ccc2OC)c1C [H1]
Out: 0.022

In: Please give the documented IC50 of COc1ccc(C)cc1-n1nnc(C(=O)Nc2ccc(O)c(C(C)(C)C)c2)c1C [G2]
Out: 1.93

In: Please give the documented IC50 of CNc1cc(NC(=O)c2nnn(-c3cc(OC)ccc3OC)c2C)cc(C(C)(C)C)c1 [D2]
Out: 0.33

In: Please give the documented IC50 of COc1ccc(Cl)cc1-n1nnc(C(=O)Nc2cc(C(C)(C)C)cc(C(C)(C)C)c2)c1C [F1]
Out: 0.044

In: Please give the documented IC50 of COc1ccc(OC)c(-n2nnc(C(=O)Nc3ccc(N)c(C(C)(C)C)c3)c2C)c1 [C2]
Out: 4.12

In: Please give the documented IC50 of CCCC(CC)Oc1ccc(C(C)(C)C)cc1NC(=O)c1nnn(-c2ccccc2OC)c1C (centres unmarked) [I1]
Out: 0.0062

In: Please give the documented IC50 of CCCC(C)Oc1ccc(C(C)(C)C)cc1NC(=O)c1nnn(-c2cc(C)ccc2OC)c1C (centres unmarked) [G11]
Out: 0.016

In: Please give the documented IC50 of COc1ccc(OC)c(-n2nnc(C(=O)Sc3ccc(NC(C)=O)cc3)c2C)c1 [K2]
Out: 8.47

In: Please give the documented IC50 of CCCCOc1ccc(C(C)(C)C)cc1NC(=O)c1nnn(-c2cc(OC(F)(F)F)ccc2OC)c1C [H19]
Out: 0.07

In: Please give the documented IC50 of COCCOCCOCCOCCOc1cc(NC(=O)c2nnn(-c3cc(OC)ccc3OC)c2C)cc(C(C)(C)C)c1 [D27]
Out: 1

In: Please give the documented IC50 of COc1ccc(OC)c(-n2nnc(C(=O)Nc3cc(C(C)(C)C)ccc3OCCCCI)c2C)c1 [B21]
Out: 0.055

In: Please give the documented IC50 of COc1ccc(OC)c(-n2nnc(C(=O)Nc3cc(C(C)(C)C)ccc3OC(C)C)c2C)c1 [B12]
Out: 0.021

In: Please give the documented IC50 of COc1ccc(Cl)cc1-n1nnc(C(=O)Nc2cc(O)cc(C(C)(C)C)c2)c1C [F4]
Out: 1.64

In: Please give the documented IC50 of CCCC(CCC)Oc1ccc(C(C)(C)C)cc1NC(=O)c1nnn(-c2cc(OC)ccc2OC)c1C [B33]
Out: 0.018

In: Please give the documented IC50 of COc1ccc(OC)c(-n2nnc(C(=O)Nc3cc(C(C)(C)C)ccc3OCCN3CCOCC3)c2C)c1 [B15]
Out: 0.54

In: Please give the documented IC50 of COc1ccc(OC)c(-n2nnc(C(=O)Nc3cc(OCCCCI)cc(C(C)(C)C)c3)c2C)c1 [D17]
Out: 0.18

In: Please give the documented IC50 of CCCCOc1ccc(C(C)(C)C)cc1NC(=O)c1nnn(-c2cc(OC)ccc2C)c1C [H11]
Out: 0.12

In: Please give the documented IC50 of COc1ccc(OC)c(-n2nnc(NC(=O)Nc3cccc(C(C)(C)C)c3)c2C)c1 [K4]
Out: 0.39
